Target: T1, human Claudin18.2 (human)
T1 construct: also called CLDN18.2
Test: cell ELISA, Claudin18.2-expressing HEK293T cells
Recorded EC50, one value per entry.
Field: numeric (nM). Do not append units.

Some solved entries appear below for comparison.
>  <binder>
410D9G2 (antibody, V domains shown, mouse hybridoma mAb) VH: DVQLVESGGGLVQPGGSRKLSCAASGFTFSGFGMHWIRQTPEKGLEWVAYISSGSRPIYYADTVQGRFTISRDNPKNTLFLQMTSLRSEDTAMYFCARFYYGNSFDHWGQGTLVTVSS VL: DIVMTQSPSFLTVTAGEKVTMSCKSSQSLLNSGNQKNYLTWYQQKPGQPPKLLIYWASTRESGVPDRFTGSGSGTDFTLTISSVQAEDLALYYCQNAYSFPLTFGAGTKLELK

>  <unit annotation>
nM

>  <number>
4.33

$$$$
>  <binder>
257G7B9 (antibody, V domains shown, mouse hybridoma mAb) VH: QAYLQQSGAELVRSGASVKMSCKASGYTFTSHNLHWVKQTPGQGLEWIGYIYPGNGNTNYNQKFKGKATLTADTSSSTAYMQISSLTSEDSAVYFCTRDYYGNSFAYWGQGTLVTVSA VL: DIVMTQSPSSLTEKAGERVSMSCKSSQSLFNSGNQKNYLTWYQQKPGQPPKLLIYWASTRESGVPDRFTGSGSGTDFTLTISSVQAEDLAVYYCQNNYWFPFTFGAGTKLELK

>  <unit annotation>
nM

>  <number>
1.02

$$$$
>  <binder>
393C2C5 (antibody, V domains shown, mouse hybridoma mAb) VH: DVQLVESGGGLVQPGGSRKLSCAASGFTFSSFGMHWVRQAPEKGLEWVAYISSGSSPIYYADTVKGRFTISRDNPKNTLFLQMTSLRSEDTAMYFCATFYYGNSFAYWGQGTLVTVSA VL: DIVMTQSPSSLTVTAGEKVTMSCKSSQTLLNSGNQKNYLTWYQQKSGQPPKLLIYWASTRESGVPDRFTGSGSGTDFTLTISSVQAEDLAVYYCQNAYSYPVTFGSGTKVELK

>  <unit annotation>
nM

>  <number>
4.45

$$$$

Now consider a different binder.
In: Consider the binder shown here: 232D7C8 (antibody, V domains shown, mouse hybridoma mAb) VH: QAYLQQSGAELVRSGASVKMSCKASGYTFTSHNMHWVKQTPGQGLEWIGYIYPGNGGTNYNQKFKGKATLTADTSSSTAYMQISSLTSEDSAVYFCARDYFGNSFAYWGQGTLVTVSA VL: DILMTQSPSSLTATAGEKVSMSCKSSQSLFNSGNQRNYLTWYQQRPGQPPKLLIYWASTRESGVPDRFTGSGSGTDFTLTISSVQAEDLAVYYCQNDYRYPFTFGAGTKLELK What is its recorded EC50?
Out: 0.738
